Values compiled from paper PMC11344278.

TARGET SYSTEM: RTEL1 CT-L (entire C-terminal region) (Homo sapiens)
Sequence (Q9NZ71 whole entry, looked up): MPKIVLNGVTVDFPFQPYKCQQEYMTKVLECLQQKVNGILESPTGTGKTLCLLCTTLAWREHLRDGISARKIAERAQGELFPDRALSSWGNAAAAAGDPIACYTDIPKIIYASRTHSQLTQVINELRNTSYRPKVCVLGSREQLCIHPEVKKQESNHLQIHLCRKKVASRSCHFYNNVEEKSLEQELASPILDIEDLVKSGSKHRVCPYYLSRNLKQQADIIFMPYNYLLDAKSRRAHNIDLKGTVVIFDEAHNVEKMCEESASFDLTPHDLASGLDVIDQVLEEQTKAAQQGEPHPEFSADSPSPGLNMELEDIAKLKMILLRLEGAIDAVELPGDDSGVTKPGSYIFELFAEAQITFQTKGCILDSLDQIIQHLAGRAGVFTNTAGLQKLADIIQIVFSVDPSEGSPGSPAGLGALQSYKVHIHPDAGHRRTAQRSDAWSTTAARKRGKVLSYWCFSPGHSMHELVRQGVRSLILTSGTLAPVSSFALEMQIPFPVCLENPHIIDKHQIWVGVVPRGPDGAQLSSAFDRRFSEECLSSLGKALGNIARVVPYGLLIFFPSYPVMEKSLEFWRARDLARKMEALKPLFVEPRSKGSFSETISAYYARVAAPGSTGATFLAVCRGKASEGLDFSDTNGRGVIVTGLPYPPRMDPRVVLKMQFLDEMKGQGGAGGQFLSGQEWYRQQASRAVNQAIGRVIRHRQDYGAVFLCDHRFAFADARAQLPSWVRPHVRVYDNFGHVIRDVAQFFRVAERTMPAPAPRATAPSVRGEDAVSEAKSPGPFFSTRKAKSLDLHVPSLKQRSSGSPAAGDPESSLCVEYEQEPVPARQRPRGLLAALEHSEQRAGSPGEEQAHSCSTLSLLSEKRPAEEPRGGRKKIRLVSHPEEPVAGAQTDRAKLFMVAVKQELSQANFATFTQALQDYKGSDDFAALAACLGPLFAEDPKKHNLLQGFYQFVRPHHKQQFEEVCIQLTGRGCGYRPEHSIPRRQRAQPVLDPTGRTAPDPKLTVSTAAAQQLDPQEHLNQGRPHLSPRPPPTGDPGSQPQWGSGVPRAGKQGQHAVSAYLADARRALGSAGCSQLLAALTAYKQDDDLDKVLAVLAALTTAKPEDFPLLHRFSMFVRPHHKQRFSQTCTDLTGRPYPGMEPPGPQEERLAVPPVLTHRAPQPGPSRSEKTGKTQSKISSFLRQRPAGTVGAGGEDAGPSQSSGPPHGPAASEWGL
ASSAY TEXT: EMSA
CONDITION SET: 0.5 mM Mg2+; 20 mM Tris pH 7.5, 50 mM KCl, 0.5 mM MgCl2, 10% glycerol, 0.1% Igepal, 10 nM substrate; EMSA at room temperature 15 min (0-160 nM protein), FA at 25 C …
MEASURED ENDPOINT: pKd
// returns pKd (minus log10 of molar concentration), number only

Short answer for CTACTACCCCCACCCTCACAACCTTTTTTTTTTTTTTT [ssDNA] : pKd was 7.40

Short answer for CUACCCCCACCCUCACAACCUUUUUUUUUUUUUUU / UUUUUUUUUUUUUUUGGUUGUGAGGGUGGGGGUA [RNA fork (R1L:R3L)] : pKd was 7.29

Short answer for GTACCCGGGGATCCTCTAGAGTCGACCTGCAGGCATGCAAGCTTGGCACTGGCCGTCGTTTTACAAC / GTTGTAAAACGACGGCCAGTGCCTTTTCCCAGCCTCAATCTCATCACTCTAGAGGATCCCCGGGTAC / GCTTGCATGCCTGCAGGCCAGCCTCAATCTCATC [D-loop (D4:D9:D11)] : pKd was 7.96

Short answer for GTACCCGGGGATCCTCTAGAGTCGACCTGCAGGCATGCAAGCTTGGCACTGGCCGTCGTTTTACAAC / GTTGTAAAACGACGGCCAGTGCCTTTTCCCAGCCTCAATCTCATCACTCTAGAGGATCCCCGGGTAC / GCUUGCAUGCCUGCAGGCCAGCCUCAAUCUCAUCUUUUU [R-loop (R4:D9:D11)] : pKd was 8.00

Short answer for CTACTACCCCCACCCTCACAACC (double strand) [dsDNA (D1B:D3B)] : pKd was 7.20

Short answer for CUACCCCCACCCUCACAACCUUUUUUUUUUUUUUU [ssRNA] : pKd was 7.34

---

TARGET SYSTEM: RTEL1 CT-L (entire C-terminal region) (Homo sapiens)
Sequence (Q9NZ71 whole entry, looked up): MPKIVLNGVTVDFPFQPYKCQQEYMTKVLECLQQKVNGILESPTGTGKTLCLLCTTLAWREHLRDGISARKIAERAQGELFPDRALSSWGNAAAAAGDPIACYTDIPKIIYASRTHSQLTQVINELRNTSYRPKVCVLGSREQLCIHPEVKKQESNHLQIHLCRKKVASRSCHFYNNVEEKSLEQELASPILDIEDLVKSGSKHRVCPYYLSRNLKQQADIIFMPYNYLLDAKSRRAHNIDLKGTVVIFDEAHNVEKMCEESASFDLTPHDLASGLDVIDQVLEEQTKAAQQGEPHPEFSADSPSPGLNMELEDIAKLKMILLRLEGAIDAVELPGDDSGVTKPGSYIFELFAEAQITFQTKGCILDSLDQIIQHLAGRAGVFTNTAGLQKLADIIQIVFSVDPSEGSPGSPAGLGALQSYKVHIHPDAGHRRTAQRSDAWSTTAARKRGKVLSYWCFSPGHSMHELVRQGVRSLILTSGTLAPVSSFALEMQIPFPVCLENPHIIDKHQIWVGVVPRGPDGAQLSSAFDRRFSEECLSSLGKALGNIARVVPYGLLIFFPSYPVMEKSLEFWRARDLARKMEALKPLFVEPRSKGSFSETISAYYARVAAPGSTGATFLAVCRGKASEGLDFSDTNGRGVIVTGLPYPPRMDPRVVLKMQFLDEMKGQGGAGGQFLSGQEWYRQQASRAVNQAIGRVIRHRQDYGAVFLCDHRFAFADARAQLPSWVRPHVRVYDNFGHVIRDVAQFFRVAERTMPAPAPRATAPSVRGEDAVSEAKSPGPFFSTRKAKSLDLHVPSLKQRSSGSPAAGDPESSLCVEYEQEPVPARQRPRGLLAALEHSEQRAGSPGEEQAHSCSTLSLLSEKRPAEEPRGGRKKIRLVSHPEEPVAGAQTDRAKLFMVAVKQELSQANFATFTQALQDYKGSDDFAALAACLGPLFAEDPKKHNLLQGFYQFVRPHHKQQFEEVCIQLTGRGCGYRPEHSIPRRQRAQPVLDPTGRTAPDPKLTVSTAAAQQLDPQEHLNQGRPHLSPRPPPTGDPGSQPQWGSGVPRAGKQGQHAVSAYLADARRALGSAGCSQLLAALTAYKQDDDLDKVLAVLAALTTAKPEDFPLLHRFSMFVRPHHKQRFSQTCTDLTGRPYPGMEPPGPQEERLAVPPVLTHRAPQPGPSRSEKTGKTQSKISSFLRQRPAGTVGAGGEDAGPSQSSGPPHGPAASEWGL
ASSAY TEXT: EMSA
CONDITION SET: 0.5 mM Mg2+; K+; 20 mM Tris pH 7.5, 50 mM KCl, 0.5 mM MgCl2, 10% glycerol, 0.1% Igepal, 10 nM substrate; EMSA at room temperature 15 min (0-160 nM protein), FA at 25 C …
MEASURED ENDPOINT: Kd (nM)
Supply the numeric figure in nM, leaving out any unit text.

Observed Kd on RTEL1 CT-L (entire C-terminal region) (Homo sapiens), entry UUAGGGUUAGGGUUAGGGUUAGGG [TERRA G4] , equals 10

Observed Kd on RTEL1 CT-L (entire C-terminal region) (Homo sapiens), entry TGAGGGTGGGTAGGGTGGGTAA [1XAV c-Myc promoter G4] , equals 57

Observed Kd on RTEL1 CT-L (entire C-terminal region) (Homo sapiens), entry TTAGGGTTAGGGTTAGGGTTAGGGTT [2JPZ telomeric G4] , equals 26
